Data provenance is ChEMBL document CHEMBL1961873.

- Target: Serine/threonine-protein kinase pim-2 (Homo sapiens);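 also: each value is a mean of the inhibition measurements against the kinase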
- Conditions used: at 1 µM
Measurement name: inhibition

• CCN1CCC(CC(=O)Nc2n[nH]c3nnc(-c4cccc(F)c4F)cc23)CC1 = 1.56%
• Nc1nc(-c2cccc(Cl)c2)c(-c2ccc3ncccc3n2)s1 = 0.44%
• COc1ccc(CNC(=O)c2ccc(-c3cc(-c4nnc(C)o4)ccc3C)cc2)cc1 = 3.03%

---

- Target: Angiopoietin-1 receptor (Homo sapiens) (UniProt Q02763);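 also: reported value is the mean TIE2 inhibition from the GSK PKIS dataset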
- Sequence (Q02763 whole entry): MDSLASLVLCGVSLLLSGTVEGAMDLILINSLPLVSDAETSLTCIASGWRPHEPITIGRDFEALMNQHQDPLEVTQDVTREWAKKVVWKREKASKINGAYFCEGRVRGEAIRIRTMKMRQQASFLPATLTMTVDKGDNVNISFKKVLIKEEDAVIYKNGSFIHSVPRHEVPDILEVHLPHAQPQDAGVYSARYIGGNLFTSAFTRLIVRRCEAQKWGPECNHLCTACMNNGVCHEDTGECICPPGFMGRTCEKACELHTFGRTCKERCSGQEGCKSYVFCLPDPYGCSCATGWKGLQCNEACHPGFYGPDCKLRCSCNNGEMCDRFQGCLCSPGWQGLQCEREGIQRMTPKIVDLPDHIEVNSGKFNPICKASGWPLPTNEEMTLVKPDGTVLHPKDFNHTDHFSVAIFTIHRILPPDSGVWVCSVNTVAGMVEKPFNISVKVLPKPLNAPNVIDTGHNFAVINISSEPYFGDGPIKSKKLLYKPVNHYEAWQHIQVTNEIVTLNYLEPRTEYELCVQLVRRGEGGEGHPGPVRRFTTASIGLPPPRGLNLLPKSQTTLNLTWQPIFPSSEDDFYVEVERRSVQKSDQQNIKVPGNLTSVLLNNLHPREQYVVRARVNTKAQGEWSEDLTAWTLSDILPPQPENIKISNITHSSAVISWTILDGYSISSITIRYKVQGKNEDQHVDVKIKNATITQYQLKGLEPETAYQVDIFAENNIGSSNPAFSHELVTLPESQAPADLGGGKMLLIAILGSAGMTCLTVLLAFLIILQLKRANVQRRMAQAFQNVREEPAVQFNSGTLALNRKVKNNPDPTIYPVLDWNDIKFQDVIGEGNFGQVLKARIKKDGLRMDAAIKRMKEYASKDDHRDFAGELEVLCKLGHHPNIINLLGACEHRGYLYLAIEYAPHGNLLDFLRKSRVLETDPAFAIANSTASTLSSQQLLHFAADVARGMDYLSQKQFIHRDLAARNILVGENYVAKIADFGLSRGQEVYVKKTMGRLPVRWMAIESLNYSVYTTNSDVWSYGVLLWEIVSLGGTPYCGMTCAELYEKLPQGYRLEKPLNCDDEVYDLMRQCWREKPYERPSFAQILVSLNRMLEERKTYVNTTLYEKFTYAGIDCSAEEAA
- Conditions used: at 1 µM
Readings of inhibition for the listed molecules
Measurement name: inhibition (%)

• CCn1c(-c2nonc2N)nc2cnc(Oc3cccc(NC(=O)c4ccc(N(C)C)cc4)c3)cc21 = 4.62
• CCCN1CCC(c2ccc(Nc3nc(Nc4cc(F)ccc4C(N)=O)c4cc[nH]c4n3)c(OC)c2)CC1 = 4.59
• c1ccc(-c2nc3n(c2-c2ccc4c(c2)OCO4)CCC3)nc1 = 1.12
• Cc1cccc2c1NC(=O)/C2=N\Nc1ccc(S(N)(=O)=O)cc1 = 1.24
• CCc1nn2ncccc2c1-c1ccnc(NC2CC2)n1 = 6.65
• CN1CCC(n2cnc(-c3ccc(F)cc3)c2-c2ccnc(N)n2)CC1 = 2.56
• N#Cc1c(NC(=O)CN2CCOCC2)sc2c1CCCC2 = 4.26
• Clc1ccc(-c2nn3ncccc3c2-c2ccnc(Nc3ccccc3)n2)cc1 = 18.5
• COc1cccc(-c2c[nH]c3c(N/N=C/c4ccncc4)ncnc23)c1 = 27.5
• CC(C)COC(=O)c1ccc2c(c1)/C(=C/Nc1ccc(S(N)(=O)=O)cc1)C(=O)N2 = 7.91
• Fc1cccc(COc2ccc(Nc3ncnc4sc(-c5ccco5)cc34)cc2Cl)c1 = 6.76
• NS(=O)(=O)c1ccc(N/N=C2\C(=O)Nc3ccc4ncccc4c32)cc1 = 11.5
• COc1cc(Nc2nccc(Nc3ccc4c(C)n[nH]c4c3)n2)cc(OC)c1OC = 49.8
• CCn1cc(-c2ccnc3[nH]ccc23)c(-c2cccc(NC(=O)Nc3ccc(OCc4ccccc4)cc3)c2)n1 = 6.2
• COC(=O)c1sc(-n2cnc3cc(OC)c(OC)cc32)cc1OCc1ccccc1C(F)(F)F = 14.3
• CC(C)(CO)CNC(=O)c1ccc2c(c1)/C(=N/Nc1ccc(S(N)(=O)=O)cc1)C(=O)N2 = 0.79
• CCCN(CCS(C)(=O)=O)Cc1ccc(-c2ccc3ncnc(Nc4ccc(OCc5cccc(F)c5)c(Cl)c4)c3c2)o1 = 6.25
• COC(=O)Nc1nc2ccc(Oc3ccc(NC(=O)Nc4cccc(Cl)c4)cc3)cc2[nH]1 = 44.7
• CCn1c(-c2nonc2N)nc2c(C#CC(C)(C)O)ncc(OC3CCNCC3)c21 = 7.95
• NS(=O)(=O)c1ccc(Nc2ncc(-c3ccccc3)o2)cc1 = 2.98
• CCn1c(-c2nonc2N)nc2c(C#CC(C)(C)O)nc(OC[C@H](N)c3ccccc3)cc21 = 6.74
• CC1=C(C(=O)Nc2cc(Cl)c3[nH]ncc3c2)C(c2ccc(C(F)(F)F)cc2)CC(=O)N1 (configuration not stated) = 5.04
• CNC(=O)c1cc(-c2ccc(F)cc2)cc(-c2ccc(S(=O)(=O)N3CCCC3)cc2)c1N = 2.3
• COc1ccc(-c2oc3ncnc(N)c3c2-c2ccc(NC(=O)Nc3cc(C(F)(F)F)ccc3F)cc2)cc1 = 86.1
• O=C(O[C@H]1CN[C@H](C#Cc2cc3ncnc(Nc4ccc(Cc5ccccc5)cc4)c3s2)C1)N1CCOCC1 = 2.3
• CC(=O)NCc1cccc(C#Cc2cncnc2Nc2ccc(OCc3cccc(F)c3)c(Cl)c2)c1 = 4.38
• COc1cccc(-n2ncc3c(N/N=C/c4ccc(F)cc4)ncnc32)c1 = 5.99

---

- Target: Discoidin domain-containing receptor 2 (Homo sapiens);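 also: reported figure is the mean inhibition of DDR2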
- Conditions used: at 1 µM
Measurement name: inhibition (%)

• CCN(CC)S(=O)(=O)c1ccc(OC)c(Nc2ncc(-c3ccccc3)o2)c1 = 17.5
• CCCN(CCS(C)(=O)=O)Cc1ccc(-c2ccc3ncnc(Nc4ccc(OCc5cccc(F)c5)c(Cl)c4)c3c2)o1 = 1.68
• CN1CCC(n2cnc(-c3ccc(F)cc3)c2-c2ccnc(N)n2)CC1 = 1.6

---

- Target: Dual specificity protein kinase CLK2 (Homo sapiens);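 also: reported values are mean percent inhibition of CLK2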
- Conditions used: at 1 µM
Measurement name: inhibition (%)

• c1ccc(COc2ccc(Nc3ncnc4ccc(-c5ccco5)cc34)cc2)cc1 = -0.79
• COc1cc2ncn(-c3cc(OCc4ccccc4C(F)(F)F)c(C(=O)N(C)C)s3)c2cc1OC = 2.04
• CN(C)CCOc1ccc(-c2nc(-c3ccncc3)c(-c3ccc4c(c3)CC/C4=N\O)[nH]2)cc1 = 2.18
• COc1ccc(-c2cc(-c3c[nH]nc3-c3ccccn3)ccn2)cc1 = 0.26

---

- Test system: Mast/stem cell growth factor receptor Kit (Homo sapiens), P10721 [D816V]
- Sequence (P10721 whole entry D816V): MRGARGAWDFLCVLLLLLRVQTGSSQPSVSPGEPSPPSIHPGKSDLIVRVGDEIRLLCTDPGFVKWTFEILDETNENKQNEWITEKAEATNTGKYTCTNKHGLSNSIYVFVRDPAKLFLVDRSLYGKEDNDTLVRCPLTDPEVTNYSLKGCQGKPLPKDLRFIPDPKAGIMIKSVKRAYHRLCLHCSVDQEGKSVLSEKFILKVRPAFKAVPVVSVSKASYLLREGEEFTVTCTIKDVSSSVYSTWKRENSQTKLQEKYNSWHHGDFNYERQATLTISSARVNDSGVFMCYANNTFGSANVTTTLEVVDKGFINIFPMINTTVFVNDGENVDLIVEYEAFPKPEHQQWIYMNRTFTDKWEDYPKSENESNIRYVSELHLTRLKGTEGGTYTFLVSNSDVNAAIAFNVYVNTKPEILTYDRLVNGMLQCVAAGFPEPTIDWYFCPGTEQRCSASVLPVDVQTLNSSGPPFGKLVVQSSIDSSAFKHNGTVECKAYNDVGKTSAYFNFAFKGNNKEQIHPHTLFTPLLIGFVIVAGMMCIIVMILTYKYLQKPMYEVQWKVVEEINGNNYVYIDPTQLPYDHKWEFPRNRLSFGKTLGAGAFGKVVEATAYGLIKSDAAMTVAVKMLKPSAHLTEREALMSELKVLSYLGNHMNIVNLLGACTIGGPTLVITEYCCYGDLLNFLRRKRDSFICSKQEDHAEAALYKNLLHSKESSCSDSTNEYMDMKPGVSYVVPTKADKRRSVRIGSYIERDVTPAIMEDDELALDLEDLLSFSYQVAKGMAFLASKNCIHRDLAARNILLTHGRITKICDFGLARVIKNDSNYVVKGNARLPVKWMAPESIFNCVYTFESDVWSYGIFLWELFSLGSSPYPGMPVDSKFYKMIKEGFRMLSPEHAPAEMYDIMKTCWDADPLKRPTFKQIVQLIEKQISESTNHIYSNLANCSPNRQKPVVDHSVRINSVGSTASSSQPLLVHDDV
- Conditions used: at 1 µM
Measurement name: inhibition

* Cc1cccc(Nc2ncc(-c3ccccc3)o2)c1 | -0.48%
* CCCN1CCC(c2ccc(Nc3nc(Nc4cc(F)ccc4C(N)=O)c4cc[nH]c4n3)c(OC)c2)CC1 | 4.96%
* NC(=O)c1sc(-n2cnc3ccc(C(F)(F)F)cc32)cc1OCc1ccccc1Br | 5.73%
* COc1cc(Nc2nccc(Nc3ccc4c(C)n[nH]c4c3)n2)cc(OC)c1OC | 58.7%
* CCOc1ccc2c(-c3ccnc(Nc4cccc(C(F)(F)F)c4)n3)cnn2n1 | 2.91%
* Fc1ccc(-c2nn3ncccc3c2-c2ccnc(Nc3ccc4c(c3)OCCO4)n2)cc1 | 4.13%
* Cc1cccc2c1NC(=O)/C2=N\Nc1ccc(S(N)(=O)=O)cc1 | -1.26%
* COc1ccc(-c2oc3ncnc(N)c3c2-c2ccc(NC(=O)Nc3cc(C(F)(F)F)ccc3F)cc2)cc1 | 5.19%

---

- Target: Serine/threonine-protein kinase Sgk3 (Homo sapiens) (UniProt Q96BR1);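 also: reported percentages are averaged inhibition values against SGK3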
- Sequence (Q96BR1 whole entry): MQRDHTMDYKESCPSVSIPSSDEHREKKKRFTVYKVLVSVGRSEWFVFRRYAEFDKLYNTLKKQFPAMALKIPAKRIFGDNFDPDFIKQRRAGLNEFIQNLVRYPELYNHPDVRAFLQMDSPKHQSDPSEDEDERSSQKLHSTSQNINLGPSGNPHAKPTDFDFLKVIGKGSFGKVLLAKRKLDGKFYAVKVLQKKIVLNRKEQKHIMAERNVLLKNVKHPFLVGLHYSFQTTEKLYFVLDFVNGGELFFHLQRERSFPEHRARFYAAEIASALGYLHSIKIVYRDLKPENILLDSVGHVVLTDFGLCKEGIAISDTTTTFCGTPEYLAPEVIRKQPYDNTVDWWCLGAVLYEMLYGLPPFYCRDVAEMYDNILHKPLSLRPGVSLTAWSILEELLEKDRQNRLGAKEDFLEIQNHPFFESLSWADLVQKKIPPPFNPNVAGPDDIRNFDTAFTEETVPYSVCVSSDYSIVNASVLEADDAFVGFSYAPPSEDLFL
- Conditions used: at 0.1 µM
Readings of inhibition for the listed compounds
Measurement name: inhibition (%)

• N#Cc1c(NC(=O)CN2CCOCC2)sc2c1CCCC2 = 3.14
• Nc1nc(-c2cccc(Cl)c2)c(-c2ccc3ncccc3n2)s1 = 4.35
• Fc1ccc(-c2cc(-c3c[nH]nc3-c3ccccn3)ccn2)cc1 = 5.08
• COc1ccc(-c2nn3ncccc3c2-c2ccnc(Nc3ccc4c(c3)OCCO4)n2)cc1 = -1.8
• CCN1CCC(CC(=O)Nc2n[nH]c3nnc(-c4cccc(F)c4F)cc23)CC1 = 0.82
• CCOc1ccc2c(-c3ccnc(Nc4cccc(C(F)(F)F)c4)n3)cnn2n1 = 0.95
• CCn1c(-c2nonc2N)nc2c(C#CC(C)(C)O)nc(OC[C@H](N)c3ccccc3)cc21 = 31.1
• CCn1c(-c2nonc2N)nc2cnc(Oc3cccc(NC(=O)c4ccc(N(C)C)cc4)c3)cc21 = 43.8
• c1ccc(COc2ccc(Nc3ncnc4ccc(-c5ccco5)cc34)cc2)cc1 = -0.56
• CN1CCC(n2cnc(-c3ccc(F)cc3)c2-c2ccnc(N)n2)CC1 = 2.25
• CCn1c(-c2nonc2N)nc2c(C#CC(C)(C)O)ncc(OC3CCNCC3)c21 = 11.2
• COc1cc2ncn(-c3cc(OCc4ccccc4C(F)(F)F)c(C(=O)N(C)C)s3)c2cc1OC = 0.08
• [O-][S+]1CCN(Cc2ccc(-c3ccc4ncnc(Nc5ccc(OCc6cccc(F)c6)c(Cl)c5)c4c3)o2)CC1 = 4.53
• CC(C)(CO)CNC(=O)c1ccc2c(c1)/C(=N/Nc1ccc(S(N)(=O)=O)cc1)C(=O)N2 = -2.66
• COC(=O)Nc1nc2ccc(Oc3ccc(NC(=O)Nc4cccc(Cl)c4)cc3)cc2[nH]1 = 0.38
• Cc1ccc2c(-c3ccnc(Nc4ccccc4)n3)c(-c3ccc(F)cc3)nn2n1 = 2.63
• Cc1cccc2c1NC(=O)/C2=N\Nc1ccc(S(N)(=O)=O)cc1 = 0.3
• CCCN1CCC(c2ccc(Nc3nc(Nc4cc(F)ccc4C(N)=O)c4cc[nH]c4n3)c(OC)c2)CC1 = 3.22
• c1ccc(-c2nc3n(c2-c2ccc4c(c2)OCO4)CCC3)nc1 = 2.37
• COc1cccc(-c2c[nH]c3c(N/N=C/c4ccncc4)ncnc23)c1 = 2.69
• Fc1ccc(-c2nn3ccccc3c2-c2ccncc2)cc1 = 3.25
• CC(=O)NCc1cccc(C#Cc2cncnc2Nc2ccc(OCc3cccc(F)c3)c(Cl)c2)c1 = -1.07
• CNC(=O)c1cc(-c2ccc(F)cc2)cc(-c2ccc(S(=O)(=O)N3CCCC3)cc2)c1N = 2.62
• CS(=O)(=O)CCNCc1ccc(-c2ccc3ncnc(Nc4ccc(OCc5ccccc5)c(C(F)(F)F)c4)c3c2)o1 = 2.51
• CS(=O)(=O)CCNCc1coc(-c2ccc3ncnc(Nc4ccc(OCc5ccccc5)cc4)c3c2)c1 = -0.71
• O=C(O[C@H]1CN[C@H](C#Cc2cc3ncnc(Nc4ccc(Cc5ccccc5)cc4)c3s2)C1)N1CCOCC1 = 2.7
• COc1cc2c(cc1Nc1nc(Nc3ccsc3C(N)=O)c3cc[nH]c3n1)N(C(=O)CN(C)C)CCC2(C)C = 2.75
• CCN(CC)S(=O)(=O)c1ccc(OC)c(Nc2ncc(-c3ccccc3)o2)c1 = 4.69
